Data origin: the supplement of paper PMC7877785

# assayComment: self-splicing fitness, log relative to wild type (ln ratio); higher = more splicing; Tetrahymena group I intron in knt gene, E. coli kanamycin selection, DiMSum; sequences stand for … in CUCUCU…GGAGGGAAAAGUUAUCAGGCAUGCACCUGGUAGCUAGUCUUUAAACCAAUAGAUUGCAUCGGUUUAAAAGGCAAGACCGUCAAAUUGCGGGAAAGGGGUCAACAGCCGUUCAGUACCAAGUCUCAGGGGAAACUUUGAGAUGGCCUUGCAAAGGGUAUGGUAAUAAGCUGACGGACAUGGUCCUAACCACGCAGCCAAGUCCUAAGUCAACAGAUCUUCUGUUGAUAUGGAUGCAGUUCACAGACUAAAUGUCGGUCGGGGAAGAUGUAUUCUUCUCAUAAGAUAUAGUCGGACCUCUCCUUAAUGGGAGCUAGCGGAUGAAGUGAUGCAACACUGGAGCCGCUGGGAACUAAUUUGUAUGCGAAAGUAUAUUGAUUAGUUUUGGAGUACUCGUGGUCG;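 also: selection with 25 µg/mL kanamycin versus none on LB agar overnight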
# conditionInfo: 37 °C

| seqText | self-splicing fitness (ln) |
| --- | --- |
| UUGCAGCAAUAUUACGUAGU | -2.51 |
| ACGAAGCAAUAUUACGAGGA | -2 |
| CUAAAGCAAUAUUACGUUGU | -3.06 |
| CAAAAGCAAUAUUACGUUGU | -2.4 |
| GCAUAGCAAUAUUACGGCUC | -0.0445 |
| GGUGAGCAAUAUUACGCGGU | -1.5 |
| UGUAAGCAAUAUUACGGACA | 0.153 |
| CAUCAGCAAUAUUACGCUCC | -2.3 |
| CAACAGCAAUAUUACGAUGG | 0.257 |
| AACCAGCAAUAUUACGUACU | 0.248 |
| AAGUAGCAAUAUUACGGCAU | 0.382 |
| GGAAAGCAAUAUUACGAAUC | -1.5 |
| UGUGAGCAAUAUUACGGGUG | -1.9 |
| UUCCAGCAAUAUUACGAAAA | 0.126 |
| ACUUAGCAAUAUUACGAUCC | -0.595 |
| UCUUAGCAAUAUUACGCGGU | -2.76 |

* * *

# assayComment: self-splicing fitness, log relative to wild type (ln ratio); higher = more splicing; Tetrahymena group I intron in knt gene, E. coli kanamycin selection, DiMSum; sequences stand for … in CUCUCU…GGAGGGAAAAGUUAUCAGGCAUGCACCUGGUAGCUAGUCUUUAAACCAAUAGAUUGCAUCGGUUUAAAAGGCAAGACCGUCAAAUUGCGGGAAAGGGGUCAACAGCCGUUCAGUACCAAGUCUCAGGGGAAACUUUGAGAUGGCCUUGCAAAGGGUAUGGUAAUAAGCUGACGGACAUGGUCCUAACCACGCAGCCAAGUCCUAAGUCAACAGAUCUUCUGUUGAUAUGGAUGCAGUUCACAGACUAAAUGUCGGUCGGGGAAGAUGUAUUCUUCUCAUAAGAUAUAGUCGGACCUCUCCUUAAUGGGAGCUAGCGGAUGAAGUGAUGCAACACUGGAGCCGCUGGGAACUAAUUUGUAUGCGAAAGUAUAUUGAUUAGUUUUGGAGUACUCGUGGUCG
# conditionInfo: 37 °C
self-splicing fitness (ln) reference
recordedMetric: self-splicing fitness (ln)

| seqText | recordedMetric | recordedNumber |
| --- | --- | --- |
| CUGGAGCAAUAUUACGUGAA | self-splicing fitness (ln) | -2.01 |
| CCAAAGCAAUAUUACGCCCG | self-splicing fitness (ln) | 0.862 |
| UCUAAGCAAUAUUACGUCAU | self-splicing fitness (ln) | -2.4 |
| UGCUAGCAAUAUUACGUUGA | self-splicing fitness (ln) | -2.43 |
| CUGCAGCAAUAUUACGCUUU | self-splicing fitness (ln) | -2.6 |
| UGGCAGCAAUAUUACGCUCU | self-splicing fitness (ln) | -1.37 |
| UCUGAGCAAUAUUACGAUAG | self-splicing fitness (ln) | -1.93 |
| ACGAAGCAAUAUUACGGGAG | self-splicing fitness (ln) | -2.73 |
| GUACAGCAAUAUUACGCGGC | self-splicing fitness (ln) | -2.11 |
| UAUCAGCAAUAUUACGGAUG | self-splicing fitness (ln) | 0.0808 |
| AUGCAGCAAUAUUACGCUCU | self-splicing fitness (ln) | 0.22 |
| UGACAGCAAUAUUACGUCGU | self-splicing fitness (ln) | -3.25 |
| CAUGAGCAAUAUUACGUGAG | self-splicing fitness (ln) | -2.55 |
| GAAGAGCAAUAUUACGUUUU | self-splicing fitness (ln) | -2.38 |
| UCACAGCAAUAUUACGCCCC | self-splicing fitness (ln) | -1.51 |
| AGUCAGCAAUAUUACGGUGC | self-splicing fitness (ln) | -1.07 |
| ACAUAGCAAUAUUACGCGAC | self-splicing fitness (ln) | -0.813 |
| UAGUAGCAAUAUUACGGGAG | self-splicing fitness (ln) | -2.3 |
| UUGCAGCAAUAUUACGGCUA | self-splicing fitness (ln) | 0.358 |
| AACUAGCAAUAUUACGUCGU | self-splicing fitness (ln) | -1.03 |
| GCUUAGCAAUAUUACGAGUA | self-splicing fitness (ln) | -0.0404 |
| AGUGAGCAAUAUUACGUGCG | self-splicing fitness (ln) | -2.08 |
| UCUUAGCAAUAUUACGUGAC | self-splicing fitness (ln) | -3.32 |
| CGGUAGCAAUAUUACGGUGA | self-splicing fitness (ln) | -0.848 |
| UGAGAGCAAUAUUACGUACG | self-splicing fitness (ln) | -1.59 |
| AGAGAGCAAUAUUACGGAGA | self-splicing fitness (ln) | -2.11 |
| GUUAAGCAAUAUUACGACUG | self-splicing fitness (ln) | -2.53 |
| AGAAAGCAAUAUUACGGGAC | self-splicing fitness (ln) | -2 |
| CCCGAGCAAUAUUACGUACA | self-splicing fitness (ln) | -2.25 |
| GCCAAGCAAUAUUACGUCGA | self-splicing fitness (ln) | -1.29 |
| UGAAAGCAAUAUUACGGACU | self-splicing fitness (ln) | 0.125 |
| ACACAGCAAUAUUACGUUAC | self-splicing fitness (ln) | -2.14 |
| ACCUAGCAAUAUUACGAAGG | self-splicing fitness (ln) | -1.85 |
| UUUUAGCAAUAUUACGGGAA | self-splicing fitness (ln) | -1.19 |

* * *

Measured self-splicing fitness (ln), listed per entry for reference.
# assayComment: self-splicing fitness, log relative to wild type (ln ratio); higher = more splicing; Tetrahymena group I intron in knt gene, E. coli kanamycin selection, DiMSum; sequences stand for … in CUCUCU…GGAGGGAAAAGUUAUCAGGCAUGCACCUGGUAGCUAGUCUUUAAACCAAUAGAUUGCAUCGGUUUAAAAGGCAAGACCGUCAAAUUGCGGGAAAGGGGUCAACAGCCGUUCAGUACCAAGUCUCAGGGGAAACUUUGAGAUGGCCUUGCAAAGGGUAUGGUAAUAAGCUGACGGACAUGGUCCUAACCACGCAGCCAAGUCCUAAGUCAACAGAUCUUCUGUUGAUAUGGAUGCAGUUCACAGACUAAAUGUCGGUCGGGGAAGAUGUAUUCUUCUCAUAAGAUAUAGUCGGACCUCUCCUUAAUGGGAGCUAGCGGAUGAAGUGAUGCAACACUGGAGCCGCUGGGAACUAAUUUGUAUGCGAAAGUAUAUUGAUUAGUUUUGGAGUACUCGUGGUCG
# conditionInfo: 30 °C
recordedMetric: self-splicing fitness (ln)

| seqText | recordedMetric | recordedNumber |
| --- | --- | --- |
| GAGCAGCAAUAUUACGUAGA | self-splicing fitness (ln) | -2.24 |
| GAUGAGCAAUAUUACGCGCA | self-splicing fitness (ln) | -1.91 |
| CAGGAGCAAUAUUACGAUUU | self-splicing fitness (ln) | -3.81 |
| CGGAAGCAAUAUUACGGGAA | self-splicing fitness (ln) | -3.16 |
| UACUAGCAAUAUUACGGUAA | self-splicing fitness (ln) | -2.33 |
| UCGAAGCAAUAUUACGACAG | self-splicing fitness (ln) | -3.08 |
| AAUAAGCAAUAUUACGUAAU | self-splicing fitness (ln) | -1.38 |
| CCAAAGCAAUAUUACGGGAC | self-splicing fitness (ln) | -4.28 |
| GAAAAGCAAUAUUACGGCUC | self-splicing fitness (ln) | -0.401 |
| AGUAAGCAAUAUUACGAUCG | self-splicing fitness (ln) | -0.735 |
| UACUAGCAAUAUUACGAUAA | self-splicing fitness (ln) | -1.05 |
| GAGGAGCAAUAUUACGAUGU | self-splicing fitness (ln) | -3.29 |
| ACGGAGCAAUAUUACGCCGA | self-splicing fitness (ln) | -1.94 |
| UCAUAGCAAUAUUACGUGCC | self-splicing fitness (ln) | -3.48 |
| GGCUAGCAAUAUUACGCGUG | self-splicing fitness (ln) | -0.672 |
| CUGUAGCAAUAUUACGGUCA | self-splicing fitness (ln) | -2.29 |
| UGGAAGCAAUAUUACGUAUU | self-splicing fitness (ln) | -3.06 |
| AAGAAGCAAUAUUACGCGGU | self-splicing fitness (ln) | -3.58 |
| CUAGAGCAAUAUUACGAAGU | self-splicing fitness (ln) | -2.56 |
| CGGAAGCAAUAUUACGAUGG | self-splicing fitness (ln) | -0.404 |
| UCAUAGCAAUAUUACGACCA | self-splicing fitness (ln) | -0.368 |
| AAGCAGCAAUAUUACGCGGC | self-splicing fitness (ln) | -3.33 |
| AUGCAGCAAUAUUACGUCUA | self-splicing fitness (ln) | -0.692 |
| UGCGAGCAAUAUUACGAUUA | self-splicing fitness (ln) | -1.56 |
| CUUUAGCAAUAUUACGUUUG | self-splicing fitness (ln) | -2.43 |
| UGUUAGCAAUAUUACGUCAG | self-splicing fitness (ln) | -1.61 |
| CGCUAGCAAUAUUACGAAUA | self-splicing fitness (ln) | -2.58 |
| AUGUAGCAAUAUUACGCUUG | self-splicing fitness (ln) | -1.06 |
| AGUCAGCAAUAUUACGGUGC | self-splicing fitness (ln) | -1.68 |
| GCCAAGCAAUAUUACGAGAA | self-splicing fitness (ln) | -2.69 |
| AGUAAGCAAUAUUACGACAG | self-splicing fitness (ln) | -2.95 |
| UACCAGCAAUAUUACGCUCC | self-splicing fitness (ln) | -1.12 |
| UGCUAGCAAUAUUACGAUCG | self-splicing fitness (ln) | 0.18 |
| UCCGAGCAAUAUUACGGCGA | self-splicing fitness (ln) | -0.0162 |
| CAGUAGCAAUAUUACGCCUA | self-splicing fitness (ln) | -0.488 |
| UCCAAGCAAUAUUACGGGAU | self-splicing fitness (ln) | -3.88 |
| AUCUAGCAAUAUUACGCGAG | self-splicing fitness (ln) | -1.92 |
| CAGUAGCAAUAUUACGAUAC | self-splicing fitness (ln) | -3.55 |
| GAAAAGCAAUAUUACGCUAC | self-splicing fitness (ln) | -2.67 |
| AAACAGCAAUAUUACGCAUG | self-splicing fitness (ln) | -2.12 |
| AUCCAGCAAUAUUACGGCGU | self-splicing fitness (ln) | -0.0553 |
| GCAAAGCAAUAUUACGGGCU | self-splicing fitness (ln) | -2.56 |
| UGGAAGCAAUAUUACGAGUC | self-splicing fitness (ln) | -2.78 |
| AGAAAGCAAUAUUACGAUUA | self-splicing fitness (ln) | -0.175 |
| UCGCAGCAAUAUUACGGGAG | self-splicing fitness (ln) | -3.59 |
| UACGAGCAAUAUUACGAUGU | self-splicing fitness (ln) | -3.35 |
| UAUCAGCAAUAUUACGCCGU | self-splicing fitness (ln) | -1.43 |
| CACGAGCAAUAUUACGUACU | self-splicing fitness (ln) | -2.77 |
| GCGAAGCAAUAUUACGUAUU | self-splicing fitness (ln) | -3.7 |
| GGCGAGCAAUAUUACGGGGA | self-splicing fitness (ln) | -2.39 |
| GAUUAGCAAUAUUACGUCGC | self-splicing fitness (ln) | -1.91 |
| CAGGAGCAAUAUUACGACCU | self-splicing fitness (ln) | -1.36 |
| UAUAAGCAAUAUUACGGUGU | self-splicing fitness (ln) | -2.97 |
| CUAAAGCAAUAUUACGACCG | self-splicing fitness (ln) | 0.565 |
| CCUCAGCAAUAUUACGUUAU | self-splicing fitness (ln) | -3.74 |
| AUCCAGCAAUAUUACGUGCA | self-splicing fitness (ln) | -1.63 |
| ACCCAGCAAUAUUACGUGGA | self-splicing fitness (ln) | -0.54 |
| UCCGAGCAAUAUUACGGGAG | self-splicing fitness (ln) | -3.81 |
| ACCUAGCAAUAUUACGAAGG | self-splicing fitness (ln) | -2.16 |
| UCCGAGCAAUAUUACGCGAC | self-splicing fitness (ln) | -2.63 |
| AUCUAGCAAUAUUACGCCGU | self-splicing fitness (ln) | -0.173 |
| UACUAGCAAUAUUACGGCUU | self-splicing fitness (ln) | -1.2 |
| GUGCAGCAAUAUUACGAUCG | self-splicing fitness (ln) | -1.95 |
| UAUAAGCAAUAUUACGGGCG | self-splicing fitness (ln) | -0.413 |
| CGUAAGCAAUAUUACGUGUA | self-splicing fitness (ln) | -3.25 |
| CGAGAGCAAUAUUACGAUGG | self-splicing fitness (ln) | -3.15 |
| UCAAAGCAAUAUUACGGCUG | self-splicing fitness (ln) | -0.827 |
